# Tested on: Acinetobacter baumannii
# Protocol Text: Antibacterial activity against Acinetobacter baumannii by broth microdilution method
# Type: functional
Readout Name: MIC (µg/mL)
Form entry: value (µg/mL) — number only.

Param item = Cc1ccc(C(=O)/C=C2\C(=O)N(CCn3cncn3)c3ccccc32)cc1 ; retrieve measured MIC.
32

# repeat for O=C1C(=O)N(CCn2cncn2)c2ccccc21
128

# repeat for O=C(/C=C1\C(=O)N(CCn2cncn2)c2ccccc21)c1ccc(O)cc1
64

# repeat for CC(=O)/C=C1\C(=O)N(CCn2cncn2)c2ccccc21
64

# repeat for O=C1C(O)c2ccccc2N1CCn1cncn1 (stereo not given)
64

# repeat for Cc1ccc(C(=O)CC2(O)C(=O)N(CCn3cncn3)c3ccccc32)cc1 (stereo not given)
128

# repeat for CCn1cc(C(=O)O)c(=O)c2cc(F)c(N3CCNCC3)cc21 [NORFLOXACIN]
8

# repeat for Cc1cc2ncn(CCN3C(=O)C(=O)c4ccccc43)c2cc1C
32

# repeat for Cc1ncc([N+](=O)[O-])n1CCN1C(=O)C(=O)c2ccccc21
128

###

# Test system: Acinetobacter baumannii
# Protocol Text: Antibacterial activity against Acinetobacter baumannii by broth microdilution method
# Format: functional
Give MIC for every item shown.
Form entry: value (µg/mL) — number only.

Requested read-out MIC, target or system Acinetobacter baumannii, entry O=C(CC1(O)C(=O)N(CCn2cncn2)c2ccccc21)c1ccc(Cl)cc1 (stereo unspecified)
64

# repeat for O=C1C(=O)N(CCn2cnc3ccccc32)c2ccccc21
128

# repeat for O=C1C(=O)N(CCn2cnc([N+](=O)[O-])c2)c2ccccc21
32

# repeat for O=C1C(=O)N(CCn2nnc3ccccc32)c2ccccc21
128

# repeat for O=C(CC1(O)C(=O)N(CCn2cncn2)c2ccccc21)c1ccc(O)cc1 (stereo unspecified)
512

# repeat for O=C(/C=C1\C(=O)N(CCn2cncn2)c2ccccc21)c1ccccc1
128

# repeat for O=C(CC1(O)C(=O)N(CCn2cncn2)c2ccccc21)c1ccccc1 (stereo unspecified)
64

# repeat for Cc1nccn1CCN1C(=O)C(=O)c2ccccc21
32

# repeat for O=C1C(=O)N(CCn2ccnn2)c2ccccc21
32

# repeat for CC(=O)CC1(O)C(=O)N(CCn2cncn2)c2ccccc21 (stereo unspecified)
256

# repeat for CCCc1nccn1CCN1C(=O)C(=O)c2ccccc21
32

###

# System: Staphylococcus aureus
# Protocol Text: Antibacterial activity against Staphylococcus aureus ATCC 25923 by broth microdilution method
# Type: functional
Readout Name: MIC (µg/mL)
Form entry: value (µg/mL) — number only.

Param item = O=C1C(O)c2ccccc2N1CCn1cncn1 (stereo not given) ; retrieve measured MIC.
64

# repeat for CCCc1nccn1CCN1C(=O)C(=O)c2ccccc21
256

# repeat for CC(=O)/C=C1\C(=O)N(CCn2cncn2)c2ccccc21
128

# repeat for O=C1C(=O)N(CCn2nnc3ccccc32)c2ccccc21
256

# repeat for Cc1cc2ncn(CCN3C(=O)C(=O)c4ccccc43)c2cc1C
256

# repeat for Cc1ccc(C(=O)/C=C2\C(=O)N(CCn3cncn3)c3ccccc32)cc1
8

# repeat for O=C1C(=O)N(CCn2cnc([N+](=O)[O-])c2)c2ccccc21
64

# repeat for O=C(CC1(O)C(=O)N(CCn2cncn2)c2ccccc21)c1ccc(O)cc1 (stereo not given)
256

# repeat for Cc1nccn1CCN1C(=O)C(=O)c2ccccc21
128

# repeat for Cc1ncc([N+](=O)[O-])n1CCN1C(=O)C(=O)c2ccccc21
256

# repeat for O=C(/C=C1\C(=O)N(CCn2cncn2)c2ccccc21)c1ccc(O)cc1
128

# repeat for CCn1cc(C(=O)O)c(=O)c2cc(F)c(N3CCNCC3)cc21
1

# repeat for CC(=O)CC1(O)C(=O)N(CCn2cncn2)c2ccccc21 (stereo not given)
256

# repeat for O=C1C(=O)N(CCn2ccnn2)c2ccccc21
256

# repeat for O=C(/C=C1\C(=O)N(CCn2cncn2)c2ccccc21)c1ccc(Cl)cc1
128
